- target-or-system: mTOR kinase (mTORC1 and mTORC2 kinase complex) (Homo sapiens, UniProt P42345)
- method-description: In vitro evaluation of mTOR kinase inhibitory activity (DiscoverX ligand-bead competition binding, qPCR readout)
recorded-metric: pKd
Reminder that pKd is minus the log10 of a molar concentration.

[
  {
    "compound": "CNC(=O)c1cccc(-c2ccc3c(N4CCOCC4C)nc(N4CCOC5CC54)nc3n2)c1 (single isomer, unassigned) [Embodiment 18-2]",
    "target-or-system": "mTOR kinase (mTORC1 and mTORC2 kinase complex) (Homo sapiens, UniProt P42345)",
    "recorded-metric": "pKd",
    "numeric-result": 9.30
  },
  {
    "compound": "C[C@H]1COCCN1c1nc(N2CCOC3(CC3)C2)nc2nc(-c3cccc(C(=O)NC4CC4)c3)ccc12",
    "target-or-system": "mTOR kinase (mTORC1 and mTORC2 kinase complex) (Homo sapiens, UniProt P42345)",
    "recorded-metric": "pKd",
    "numeric-result": 9.33
  },
  {
    "compound": "CNC(=O)c1cccc(-c2ccc3c(N4CCOC[C@@H]4C)nc(N4CCOC5(COC5)C4)nc3n2)c1",
    "target-or-system": "mTOR kinase (mTORC1 and mTORC2 kinase complex) (Homo sapiens, UniProt P42345)",
    "recorded-metric": "pKd",
    "numeric-result": 9.11
  }
]

Request: Give pKd for CNC(=O)c1cccc(-c2ccc3c(N4CCOC[C@@H]4C)nc(N4CC5(CCC5)OC[C@@H]4C)nc3n2)c1
Result: 9.36
